# System: Staphylococcus aureus
# ASSAY SUMMARY: Antimicrobial activity against Staphylococcus aureus SA-1199B expressing wild type norA by microdilution method
# Type: organism-based
# CONDITION CONTEXT: in vivo
Assign MIC to each entry below.

Measured on Staphylococcus aureus, CCCOc1ccc(-c2cc(OCCN(CC)CC)c3ccc(OC)cc3n2)cc1 has a documented MIC of > 100 µg/mL

Measured on Staphylococcus aureus, CCCOc1ccc(-c2cc(OCCN3CCCCCC3)c3ccc(OC)cc3n2)cc1 has a documented MIC of 100 µg/mL

Measured on Staphylococcus aureus, CCCOc1ccc(-c2cc(OCCN3CCCCCC3)c3cc(OC)cc(OC)c3n2)cc1 has a documented MIC of > 100 µg/mL

Measured on Staphylococcus aureus, CCCOc1ccc(-c2cc(OCCN(CC)CC)c3cc(OC)ccc3n2)cc1 has a documented MIC of 50 µg/mL

Measured on Staphylococcus aureus, CCCOc1ccc(-c2cc(OCCN3CCc4cc(OC)c(OC)cc4C3)c3ccc(OC)cc3n2)cc1 has a documented MIC of > 100 µg/mL

Measured on Staphylococcus aureus, O=C(O)c1cn(C2CC2)c2cc(N3CCNCC3)c(F)cc2c1=O has a documented MIC of 0.63 µg/mL

Measured on Staphylococcus aureus, CCCOc1ccc(-c2cc(OCCN3CCNCC3)c3cccc(OC)c3n2)cc1 has a documented MIC of > 100 µg/mL

Measured on Staphylococcus aureus, COC(=O)[C@H]1[C@H]2C[C@@H]3c4[nH]c5cc(OC)ccc5c4CCN3C[C@H]2C[C@@H](OC(=O)c2cc(OC)c(OC)c(OC)c2)[C@@H]1OC has a documented MIC of > 100 µg/mL

Measured on Staphylococcus aureus, CCCOc1ccc(-c2cc(OCCN3CCCCC3)c3cc(OC)ccc3n2)cc1 has a documented MIC of > 100 µg/mL

Measured on Staphylococcus aureus, CCCOc1ccc(-c2cc(OCCN3CCN(Cc4ccccc4)CC3)c3ccc(OC)cc3n2)cc1 has a documented MIC of > 100 µg/mL

###

Assign MIC to each entry below.
# System: Staphylococcus aureus
# ASSAY SUMMARY: Antimicrobial activity against Staphylococcus aureus SA-1199B expressing wild type norA and co-expressing GrlA A116E mutant by microdilution method
# Assay type: organism-based
# CONDITION CONTEXT: in vivo
Please give a number only; it is taken to be in µM.

Measured on Staphylococcus aureus, CCCOc1ccc(-c2cc(OCCN3CCCCCC3)c3cc(OC)ccc3n2)cc1 has a documented MIC of 28.7

Measured on Staphylococcus aureus, CCCOc1ccc(-c2cc(OCCN(CC)CC)c3cc(OC)ccc3n2)cc1 has a documented MIC of 122

Measured on Staphylococcus aureus, CCCOc1ccc(-c2cc(OCCN3CCCCC3)c3c(OC)cccc3n2)cc1 has a documented MIC of 59.4

Measured on Staphylococcus aureus, CCCOc1ccc(-c2cc(OCCN3CCCCC3)c3ccc(OC)cc3n2)cc1 has a documented MIC of 238

Measured on Staphylococcus aureus, CCCOc1ccc(-c2cc(OCCN(CC)CC)c3cccc(OC)c3n2)cc1 has a documented MIC of 245

Measured on Staphylococcus aureus, CCCOc1ccc(-c2cc(OCCCN(C)C)c3ccc(OC)cc3n2)cc1 has a documented MIC of 232

###

# ASSAY SUMMARY: Metabolic stability in mouse liver microsomes assessed as parent compound remaining at 50 uM in presence of NADPH regenerating system incubated for 120 mins by UPLC/MS analysis
# Assay type: ADME, microsome
# CONDITION CONTEXT: read-out: Stability
EXPERIMENTAL ENDPOINT: remaining at 2 h, 50 µM (%)
Please give a number only; it is taken to be in %.

According to the records, this molecule CCCOc1ccc(-c2cc(OCCN3CCc4cc(OC)c(OC)cc4C3)c3cc(OC)c(OC)cc3n2)cc1 displays remaining at 2 h, 50 µM of 62

###

# ASSAY SUMMARY: Cytotoxicity in human HepG2 cells assessed as reduction in cell viability incubated for 24 hrs by ATP bioluminescence assay
# Type: cell-based
Assign CC50 at 24 h to each entry below.
Please give a number only; it is taken to be in µg/mL.

According to the records, this molecule CCCOc1ccc(-c2cc(OCCN(CC)CC)c3ccc(OC)cc3n2)cc1 displays CC50 at 24 h of 7.7

According to the records, this molecule CCCOc1ccc(-c2cc(OCCN3CCc4cc(OC)c(OC)cc4C3)c3cc(OC)c(OC)cc3n2)cc1 displays CC50 at 24 h of 74

According to the records, this molecule CCCOc1ccc(-c2cc(OCCN3CCCCC3)c3ccc(OC)cc3n2)cc1 displays CC50 at 24 h of 71.5

According to the records, this molecule CCCOc1ccc(-c2cc(OCCN(CC)CC)c3cc(OC)ccc3n2)cc1 displays CC50 at 24 h of 5

According to the records, this molecule O=C(O)c1cn(C2CC2)c2cc(N3CCNCC3)c(F)cc2c1=O displays CC50 at 24 h of 139

According to the records, this molecule CCCOc1ccc(-c2cc(OCCN3CCCCC3)c3cc(OC)ccc3n2)cc1 displays CC50 at 24 h of 42

###

Assign MIC to each entry below.
# Test system: Staphylococcus aureus
# ASSAY SUMMARY: Antimicrobial activity against Staphylococcus aureus SA-1199B expressing wild type norA and co-expressing GrlA A116E mutant by microdilution method
# Type: organism-based
# CONDITION CONTEXT: in vivo
Please give a number only; it is taken to be in µM.

According to the records, this compound CCCOc1ccc(-c2cc(OCCN3CCc4cc(OC)c(OC)cc4C3)c3c(OC)cc(OC)cc3n2)cc1 displays MIC of 179

According to the records, this compound CCCOc1ccc(-c2cc(OCCN3CCCCC3)c3cc(OC)ccc3n2)cc1 displays MIC of 238

According to the records, this compound CCCOc1ccc(-c2cc(OCCN3CCc4cc(OC)c(OC)cc4C3)c3cc(OC)cc(OC)c3n2)cc1 displays MIC of 45

According to the records, this compound CCCOc1ccc(-c2cc(OCCN3CCNCC3)c3ccc(OC)cc3n2)cc1 displays MIC of 237

According to the records, this compound CCCOc1ccc(-c2cc(O)c3c(OC)cccc3n2)cc1 displays MIC of 40.4

According to the records, this compound CCCOc1ccc(-c2cc(OCCN3CCCCC3)c3cccc(OC)c3n2)cc1 displays MIC of 238

###

# ASSAY SUMMARY: Selectivity index, ratio of CC50 for human THP1 cells to inhibition of NorA in Staphylococcus aureus SA-1199B expressing GrlA A116E mutant assessed as minimal potentiating drug concentration causing 8 fold reduction in ciprofloxacin MIC by microdilution method based Checkerboard assay
# Format: toxicity
# CONDITION CONTEXT: read-out: Selectivity Index
EXPERIMENTAL ENDPOINT: selectivity ratio

According to the records, this compound CCCOc1ccc(-c2cc(OCCN3CCCCC3)c3cc(OC)ccc3n2)cc1 displays selectivity ratio of > 128

###

# ASSAY SUMMARY: Cytotoxicity in human THP1 cells assessed as reduction in cell viability incubated for 24 hrs by ATP bioluminescence assay
# Assay type: cell-based, THP-1
EXPERIMENTAL ENDPOINT: CC50 at 24 h (µg/mL)
Please give a number only; it is taken to be in µg/mL.

According to the records, this compound CCCOc1ccc(-c2cc(OCCN3CCc4cc(OC)c(OC)cc4C3)c3cc(OC)c(OC)cc3n2)cc1 displays CC50 at 24 h of 37

###

# Tested on: Staphylococcus aureus
# ASSAY SUMMARY: Antimicrobial activity against Staphylococcus aureus ATCC 25923 by microdilution method
# Assay type: organism-based
# CONDITION CONTEXT: in vivo
EXPERIMENTAL ENDPOINT: MIC

According to the records, this compound CCCOc1ccc(-c2cc(OCCN3CCc4cc(OC)c(OC)cc4C3)c3c(OC)cc(OC)cc3n2)cc1 displays MIC of 100 µg/mL

According to the records, this compound CCCOc1ccc(-c2cc(OCCN3CCN(Cc4ccccc4)CC3)c3ccc(OC)cc3n2)cc1 displays MIC of > 100 µg/mL

According to the records, this compound CCCOc1ccc(-c2cc(OCCN3CCCCCC3)c3cc(OC)ccc3n2)cc1 displays MIC of 12.5 µg/mL

According to the records, this compound CCCOc1ccc(-c2cc(OCCN(CC)CC)c3ccccc3n2)cc1 displays MIC of 100 µg/mL

According to the records, this compound CCCOc1ccc(-c2cc(OCCN3CCc4cc(OC)c(OC)cc4C3)c3ccc(OC)cc3n2)cc1 displays MIC of > 100 µg/mL

According to the records, this compound CCCOc1ccc(-c2cc(OCCN3CCCCCC3)c3cc(OC)cc(OC)c3n2)cc1 displays MIC of > 100 µg/mL

According to the records, this compound O=C(O)c1cn(C2CC2)c2cc(N3CCNCC3)c(F)cc2c1=O [CIPROFLOXACIN] displays MIC of 0.31 µg/mL

According to the records, this compound CCCOc1ccc(-c2cc(OCCN(CC)CC)c3c(OC)cc(OC)cc3n2)cc1 displays MIC of 100 µg/mL

According to the records, this compound CCCOc1ccc(-c2cc(OCCN3CCCCCC3)c3ccc(OC)cc3n2)cc1 displays MIC of > 100 µg/mL

According to the records, this compound CCCOc1ccc(-c2cc(OCCN(CC)CC)c3ccc(OC)cc3n2)cc1 displays MIC of 50 µg/mL

Data origin, for the record: ChEMBL document CHEMBL4145675
